These data points were gathered from patent US20230278972A1.

system: kochia (Bassia scoparia); assay: Test A1 preemergence, kochia; type: in vivo; details: 31 g ai/ha, 0 to 100 scale (0 no effect, 100 complete control)

| Compound | Plant response rating, Kochia |
| --- | --- |
| Cc1c(C(=O)N2CCOCC2)cc(NS(=O)(=O)C(F)(F)F)c(Cl)c1F | 80 |
| Cc1c(NS(=O)(=O)C(F)(F)F)cc(C(=O)N2CCC(F)CC2)c(C)c1C | 20 |
| Cc1cc(Cl)c(NS(=O)(=O)C(F)(F)F)cc1N1CC2(CCCCC2)OC1=O | 30 |
| Cc1cc(C)c(N(COC(=O)N(C)C)S(=O)(=O)C(F)(F)F)cc1C1=NOC2CCCC12 (stereo not shown) | 0 |

###

Collected Plant response rating, Corn values appear next to each entry.
system: corn (Zea mays); assay: Test A postemergence, corn; type: in vivo; conditions: Postemergence, 1000 g ai/ha; visual injury, 0 to 100 scale (0 no effect, 100 complete control), approx. 10 days

| Item smiles | Measured on | Plant response rating, Corn |
| --- | --- | --- |
| Cc1cc(C)c(C(=O)N2CCC(C)CC2)cc1NS(=O)(=O)C(F)(F)F | corn (Zea mays) | 20 |
| Cc1ccc(C(=O)N2CCC(C(C)(C)C)CC2)cc1NS(=O)(=O)C(F)(F)F | corn (Zea mays) | 0 |
| Cc1cc(C)c(C(=O)N2CCC(F)CC2)cc1NS(=O)(=O)C(F)(F)F | corn (Zea mays) | 30 |
| COc1cc(Cl)c(NS(=O)(=O)C(F)(F)F)cc1C(=O)N1CCOCC1 | corn (Zea mays) | 10 |
| Cc1cc(C)c(N(S(=O)(=O)C(F)(F)F)S(=O)(=O)C(F)(F)F)cc1C(=O)N1CCSCC1 | corn (Zea mays) | 10 |
| Cc1cc(C)c(C(=O)N2CCC(C(C)(C)C)CC2)cc1NS(=O)(=O)C(F)(F)F | corn (Zea mays) | 10 |

###

Collected Plant response rating, Ryegrass, Italian values appear next to each entry.
system: Ryegrass, Italian (Italian ryegrass, Lolium multiflorum); assay: Test A1 postemergence, Ryegrass, Italian; assay type: in vivo; settings: Postemergence, 125 g ai/ha; 0 to 100 scale
Property measured: Plant response rating, Ryegrass, Italian

| Compound | Property measured | Recorded measurement |
| --- | --- | --- |
| Cc1c(C(=O)N(C)C)cc(NS(=O)(=O)C(F)(F)F)c(Cl)c1F | Plant response rating, Ryegrass, Italian | 40 |
| Cc1c(NS(=O)(=O)C(F)(F)F)cc(C(=O)N2CC(C)OC(C)C2)c(C)c1C (stereo not shown) [Compound 328] | Plant response rating, Ryegrass, Italian | 60 |
| Cc1c(C(=O)N2CCC(Cl)CC2)cc(N(COC(=O)C(C)(C)C)S(=O)(=O)C(F)(F)F)c(C)c1C | Plant response rating, Ryegrass, Italian | 0 |
| C#CCN(C)C(=O)c1cc(NS(=O)(=O)C(F)(F)F)c(Cl)c(F)c1C | Plant response rating, Ryegrass, Italian | 20 |
| COC1CCN(C(=O)c2cc(N(COC(=O)C(C)(C)C)S(=O)(=O)C(F)(F)F)c(C)c(C)c2C)CC1 | Plant response rating, Ryegrass, Italian | 0 |
| Cc1c(C(=O)N2C[C@@H](C)O[C@@H](C)C2)cc(N(COC(=O)C(C)(C)C)S(=O)(=O)C(F)(F)F)c(C)c1C | Plant response rating, Ryegrass, Italian | 50 |
| Cc1cc(C)c(N(COC(=O)C(C)(C)C)S(=O)(=O)C(F)(F)F)cc1C1=NOC2(C)CCCC12 (stereo not shown) | Plant response rating, Ryegrass, Italian | 0 |
